Experimental target: T1, Charged multivesicular body protein 2B (CHMP2B), full length, purified (human, UniProt Q9UQN3 2-213)
T1 construct: mature; not shown: tag from the pET-DEST42 vector used for Ni-NTA purification
T1 sequence (Q9UQN3 2-213): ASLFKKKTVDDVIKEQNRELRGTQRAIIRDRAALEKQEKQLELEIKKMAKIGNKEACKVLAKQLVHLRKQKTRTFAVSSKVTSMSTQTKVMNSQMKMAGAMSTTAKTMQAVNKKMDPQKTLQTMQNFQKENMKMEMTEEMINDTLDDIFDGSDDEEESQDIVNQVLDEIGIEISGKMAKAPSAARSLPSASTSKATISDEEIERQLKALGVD
Test: fluorescence polarization, stapled peptide against full length CHMP2B
Bridge positions count the residues as written; N and C are the ends. Ends that are not written are not given here. * marks the point of attachment. FITC = O=C1OC2(c3ccc(O)cc3Oc3cc(O)ccc32)c2ccc(NC(=S)*)cc21
Outcome measure: Kd (nM)
Give your result in nM as a bare value.

Which measured Kd value corresponds to {FITC}-DEEICRQLDALC (linker 5-12 via hexafluorobenzene (inferred), also called optimized macrocycle) [Stapled Pdpep1.4 variant DEEICRQLDALC] ?
600
